- assaySystem: LINE1 reverse transcriptase (Homo sapiens, UniProt O00370)
- Sequence (O00370 whole entry, looked up): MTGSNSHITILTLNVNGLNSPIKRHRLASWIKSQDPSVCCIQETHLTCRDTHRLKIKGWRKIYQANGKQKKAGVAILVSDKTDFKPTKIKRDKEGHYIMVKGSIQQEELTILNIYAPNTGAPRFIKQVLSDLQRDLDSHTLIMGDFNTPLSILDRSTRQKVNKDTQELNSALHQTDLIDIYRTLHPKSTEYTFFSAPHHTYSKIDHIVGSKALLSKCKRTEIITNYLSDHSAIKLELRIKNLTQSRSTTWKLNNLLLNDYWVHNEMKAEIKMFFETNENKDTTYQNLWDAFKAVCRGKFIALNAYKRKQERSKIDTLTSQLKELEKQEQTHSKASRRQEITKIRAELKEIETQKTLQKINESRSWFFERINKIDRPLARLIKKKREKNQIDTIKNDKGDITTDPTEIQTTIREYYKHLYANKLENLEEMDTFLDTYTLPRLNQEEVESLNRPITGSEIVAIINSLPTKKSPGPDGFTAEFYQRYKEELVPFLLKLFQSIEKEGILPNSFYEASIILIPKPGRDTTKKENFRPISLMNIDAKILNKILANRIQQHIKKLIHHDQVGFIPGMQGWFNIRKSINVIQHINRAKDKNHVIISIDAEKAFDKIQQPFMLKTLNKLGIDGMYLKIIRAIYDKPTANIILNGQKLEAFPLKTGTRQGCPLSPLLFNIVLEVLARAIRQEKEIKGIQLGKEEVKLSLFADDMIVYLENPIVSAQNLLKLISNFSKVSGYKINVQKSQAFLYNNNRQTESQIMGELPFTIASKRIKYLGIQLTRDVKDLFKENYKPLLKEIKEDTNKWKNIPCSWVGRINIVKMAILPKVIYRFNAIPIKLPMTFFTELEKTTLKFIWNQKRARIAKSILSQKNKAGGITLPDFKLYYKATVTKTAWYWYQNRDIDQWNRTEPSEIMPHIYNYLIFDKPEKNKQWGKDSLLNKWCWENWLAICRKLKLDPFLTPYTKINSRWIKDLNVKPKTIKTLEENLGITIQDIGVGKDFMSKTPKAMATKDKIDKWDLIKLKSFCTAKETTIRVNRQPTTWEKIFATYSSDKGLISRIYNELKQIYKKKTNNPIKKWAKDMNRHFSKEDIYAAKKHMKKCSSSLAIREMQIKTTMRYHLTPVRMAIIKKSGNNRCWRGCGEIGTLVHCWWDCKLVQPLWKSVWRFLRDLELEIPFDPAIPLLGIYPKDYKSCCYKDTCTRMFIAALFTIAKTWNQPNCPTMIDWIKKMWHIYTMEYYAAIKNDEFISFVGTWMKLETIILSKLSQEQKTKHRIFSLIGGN
- protocolText: Transient artificial-intron Cis LINE1 reporter assay
- Format: cell-based
- Parameters: expressed in transfected cells
- conditionLabel: HEK 293 cells, ratio FLuc/RLuc reports LINE1 activity; read-out: IC50, inhibition of FLuc (FF/RR)
outcomeMeasure: IC50 (nM)
Write the number in nM without appending the unit.

Entry COC(=O)[C@H](C)NP(=O)(OC[C@@H]1C=C[C@H](n2cc(C)c(=O)[nH]c2=O)O1)Oc1ccc(Br)cc1 (stereo partly shown) [drawing 36] : reported IC50 = ? 5.7

###

- assaySystem: LINE1 reverse transcriptase (Homo sapiens)
- protocolText: Stable artificial-intron Cis LINE1 reporter assay
- Format: cell-based
- Design: expressed in transfected cells; host or cells: HeLa Tet-On 3G (Takara, cat no 631183)
- conditionLabel: HeLa L1 artificial-intron reporter cells, doxycycline induced, 72 h, Firefly luciferase; read-out: IC50, inhibition of LINE1 reverse transcriptase
outcomeMeasure: IC50 (nM)
Write the number in nM without appending the unit.

Entry COC(=O)[C@H](C)NP(=O)(OC[C@@H]1C=C[C@H](n2cc(C)c(=O)[nH]c2=O)O1)Oc1ccc(Br)cc1 (stereo partly shown) [drawing 37] : reported IC50 = ? 17
